In this section, each of the compounds is paired with its reported minimal effective dose.
System: Substance P Induced Plasma Extravasation
protocolDescription: Antagonism of substance P induced plasma extravasation in guinea-pigs
Assay type: in vivo, guinea-pig
testParameters: Cavia porcellus, sc, 0.5 h; s.c., 1 hour prior to substance P; urinary bladder; read-out: lowest active dose (LAD), urinary bladder
Method: Antagonism of Substance P Induced Plasma Extravasation in Guinea-pigs Plasma travasation was induced by injection of substance P (2 mg/kg) in the femoral artery of female guinea-pigs. Evans Blue dye (30 mg/kg) was injected simultaneously. The test compound or solvent was administered subcutaneous (s.c.) or orally (p.o.) 1 hour prior to substance P injection. […]
Note: a bare number is incomplete; add the unit.

Check out these entries, answers already filled in.
Cc1cc(C)cc(C(=O)N2CC[C@@H](N3CCC(=C4c5ccccc5CCn5c(C=O)cnc54)CC3)C[C@@H]2Cc2ccccc2)c1 (relative stereo)	10 mg/kg
Cc1cc(C)cc(C(=O)N2CC[C@@H](N3CCC(=C4c5sccc5CCn5ccnc54)CC3)C[C@H]2Cc2ccccc2)c1 (relative stereo)	10 mg/kg
O=C(c1cc(C(F)(F)F)cc(C(F)(F)F)c1)N1CC[C@@H](N2CCC(C3c4ccccc4CCn4ccnc43)CC2)C[C@@H]1Cc1ccccc1 (stereo partly drawn)	10 mg/kg

// query Item O=C(c1cc(C(F)(F)F)cc(C(F)(F)F)c1)N1CC[C@@H](N2CCC(=C3c4ccccc4CCn4ccnc43)CC2)C[C@@H]1Cc1ccccc1 (relative stereo) with Substance P Induced Plasma Extravasation - minimal effective dose?
// result 10 mg/kg

// query Item Cc1cc(C)cc(C(=O)N2CC[C@H](N3CCC(=C4c5ccsc5CCn5ccnc54)CC3)C[C@H]2Cc2ccccc2)c1 (relative stereo) with Substance P Induced Plasma Extravasation - minimal effective dose?
// result 10 mg/kg

// query Item Cc1cc(C)cc(C(=O)N2CC[C@H](N3CCC(=C4c5ccccc5CCn5ccnc54)CC3)C[C@H]2Cc2ccccc2)c1 (relative stereo) with Substance P Induced Plasma Extravasation - minimal effective dose?
// result 10 mg/kg
